- system_tested: UniProt:Q9BY66
- Sequence (Q9BY66 458-749 limits assumed): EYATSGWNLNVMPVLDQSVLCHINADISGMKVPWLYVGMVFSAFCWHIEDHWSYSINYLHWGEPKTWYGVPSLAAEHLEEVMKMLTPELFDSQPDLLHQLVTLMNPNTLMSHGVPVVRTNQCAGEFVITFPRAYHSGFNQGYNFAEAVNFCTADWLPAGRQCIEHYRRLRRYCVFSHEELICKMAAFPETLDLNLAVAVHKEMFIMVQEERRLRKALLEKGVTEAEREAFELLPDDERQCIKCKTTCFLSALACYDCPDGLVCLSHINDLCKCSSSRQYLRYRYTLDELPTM
- assay_text: High-content immunofluorescence (IF) assay, overexpressed full-length FLAG-tagged KDM in HeLa cells
- condition_parameters: HeLa cells overexpressing WT KDM5D, H3K4me3 mark, 24 h; read-out: KDM5D, in cells, EC50 by IF assay (head: IC50)
value_kind: pEC50
API: returns pEC50 as number; meaning -log10 of concentration in mol/L.

# input Can you look up the measured pEC50 of CCOC(=O)c1ccnc(CNCC(=O)N(CC)CCN(C)C)c1 [KDOAM-21] for me?
# output 5.40

----------
This section presents compounds with their documented EC50 values.
- system_tested: KDM4A (Homo sapiens, UniProt O75164)
- Construct: transiently transfecting the full-length FLAG-tagged demethylase (WT) into cells
- Sequence (O75164 1-1064 A482E): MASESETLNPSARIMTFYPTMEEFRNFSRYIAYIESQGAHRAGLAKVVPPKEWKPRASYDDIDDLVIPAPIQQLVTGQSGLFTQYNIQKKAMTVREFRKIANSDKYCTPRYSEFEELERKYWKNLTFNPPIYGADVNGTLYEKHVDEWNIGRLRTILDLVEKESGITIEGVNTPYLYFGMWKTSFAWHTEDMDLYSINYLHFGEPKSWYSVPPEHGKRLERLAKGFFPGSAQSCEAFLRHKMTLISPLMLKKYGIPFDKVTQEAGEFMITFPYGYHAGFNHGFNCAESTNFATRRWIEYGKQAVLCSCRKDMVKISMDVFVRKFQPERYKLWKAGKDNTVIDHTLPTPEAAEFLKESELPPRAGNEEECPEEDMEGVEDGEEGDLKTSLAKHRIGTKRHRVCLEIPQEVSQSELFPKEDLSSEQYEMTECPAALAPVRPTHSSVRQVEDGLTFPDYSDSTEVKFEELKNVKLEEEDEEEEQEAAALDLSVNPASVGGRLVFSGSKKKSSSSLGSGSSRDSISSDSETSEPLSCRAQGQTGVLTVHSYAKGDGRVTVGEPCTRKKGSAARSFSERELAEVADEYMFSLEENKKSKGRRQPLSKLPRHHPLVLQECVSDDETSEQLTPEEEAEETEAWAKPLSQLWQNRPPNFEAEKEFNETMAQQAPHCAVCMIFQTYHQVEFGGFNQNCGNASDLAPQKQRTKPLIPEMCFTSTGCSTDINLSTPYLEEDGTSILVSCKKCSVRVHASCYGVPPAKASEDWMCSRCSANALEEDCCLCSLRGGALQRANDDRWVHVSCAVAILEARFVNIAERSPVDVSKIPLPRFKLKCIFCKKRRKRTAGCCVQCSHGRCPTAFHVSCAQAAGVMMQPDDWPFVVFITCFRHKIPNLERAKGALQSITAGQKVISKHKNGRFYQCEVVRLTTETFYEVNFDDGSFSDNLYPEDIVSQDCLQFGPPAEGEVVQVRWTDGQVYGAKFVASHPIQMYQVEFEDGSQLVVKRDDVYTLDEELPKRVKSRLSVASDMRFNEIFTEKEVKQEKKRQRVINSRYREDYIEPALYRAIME
- assay_text: High-content immunofluorescence (IF) assay, overexpressed full-length FLAG-tagged KDM in HeLa cells
- condition_parameters: HeLa cells overexpressing WT KDM4A, H3K9me3 mark, 24 h; read-out: KDM4A, in cells, EC50 by IF assay (head: IC50)

>  <smiles_structure>
CCN(CCN(C)C)C(=O)CNCc1cncc(C(N)=O)c1

>  <result>
> 100 µM

$$$$
>  <smiles_structure>
CCOC(=O)c1ccnc(CNCC(=O)N(CC)CCN(C)C)c1

>  <result>
70 µM

$$$$

Here's the next entry for you.
# input Test system KDM4A (Homo sapiens, UniProt O75164); read-out EC50; what value for O=c1[nH]cnc2c(-n3cc(CCN4CCC(c5cccc(Cl)c5)CC4)cn3)cccc12 ?
# output > 100 µM
